Here, each record is paired with measured GI50 data.
# Tested on: SK-OV-3
# ASSAY_NAME: NCI tumour cell line growth inhibition, 48 h
Activity calls are given as the source filed them. No stated cut-off is given here; in the data, active = GI50 up to about 1.1 µM and inactive = higher.

Examples with answers:
Query string: Find the recorded GI50 belonging to COP(=O)(OC)/C(=C/c1cn(C(C)=O)c2ccccc12)NC(C)=O and report it.
Result string: > 100 µM (inactive)

Query string: Find the recorded GI50 belonging to Nc1cccc(OCc2nc(N)nc(N)c2-c2ccc(Cl)cc2)c1 and report it.
Result string: 89.1 µM (inactive)

Now for the compound whose GI50 we want.
Query string: Find the recorded GI50 belonging to NC1=C(N2CCOCC2)C(=O)NC2=N/C(=C\c3ccccc3)C(=O)N21 and report it.
Result string: > 100 µM (inactive)
